Each item that follows carries a reported AUC of dose-response viability curve.
- System: CAKI-1
- METHOD SUMMARY: AUC of dose-response viability curve, drug alone (arbitrary (AUC of normalised viability)); higher = less growth inhibition
- MEASUREMENT PARAMETERS: treatment: drug alone; 5 days
Give the value as a plain number.

Worked examples, 2 compounds total:
COMPOUND | AUC of dose-response viability curve
C#Cc1cccc(Nc2ncnc3cc(OCCOC)c(OCCO)cc23)c1 | 2.93
N#Cc1c(O)c2c(-c3ccc(-c4ccccc4O)cc3)csc2[nH]c1=O | 3.65

The observed AUC of dose-response viability curve for NC(=O)Nc1cc(-c2cccc(F)c2)sc1C(=O)N[C@H]1CCCNC1 [AZD7762] when tested with CAKI-1 stands at 1.78

Given the compound CCN(CC)CCNC(=O)c1c(C)[nH]c(/C=C2\C(=O)Nc3ccc(F)cc32)c1C.O=C(O)C[C@H](O)C(=O)O [Sunitinib Malate (Sutent)] and test system CAKI-1, the measured AUC of dose-response viability curve is 2.77

So the reported AUC of dose-response viability curve for `Nc1nccc(Oc2ccc(NC(=O)c3c[nH]cc(-c4ccc(F)cc4)c3=O)cc2F)c1Cl` , on CAKI-1, turned out to be 3.45

Form field, AUC of dose-response viability curve with CAKI-1, item Nc1cccc(-c2cc3c(Oc4cccc(O)c4)ncnc3[nH]2)c1 [TWS119] : 3.09

Item FC(F)(F)c1ccc(Nc2nc3cc(Oc4ccnc(-c5ncc(C(F)(F)F)[nH]5)c4)ccc3[nH]2)cc1 [Raf265 derivative] ; assay system CAKI-1; AUC of dose-response viability curve reported as 3.62

Per the reported CAKI-1 data, CC1(C)CNc2cc(NC(=O)c3cccnc3NCc3ccncc3)ccc21.O=P(O)(O)O.O=P(O)(O)O [Motesanib Diphosphate] has AUC of dose-response viability curve of 3.36

---

- System: UO-31
- METHOD SUMMARY: AUC of dose-response viability curve, drug alone (arbitrary (AUC of normalised viability)); higher = less growth inhibition
- MEASUREMENT PARAMETERS: treatment: drug alone; 5 days
REPORTED PROPERTY: AUC of dose-response viability curve

Examples from the recorded data:
COMPOUND | AUC of dose-response viability curve
c1cncc(CN2CCC(n3ncc4c(N5CCOCC5)nc(-c5ccc6[nH]ccc6c5)nc43)CC2)c1 | 3.04
CCN(CC)CCNC(=O)c1c(C)[nH]c(/C=C2\C(=O)Nc3ccc(F)cc32)c1C.O=C(O)C[C@H](O)C(=O)O [Sunitinib Malate (Sutent)] | 3.93
CC(C)c1ccccc1Cc1cc(C(=O)Nc2ccc(S(=O)(=O)c3ccccc3C(C)(C)C)cc2)c(O)c(O)c1O | 4.07
COc1cc(Nc2ncc(F)c(Nc3ccc4c(n3)N(COP(=O)([O-])[O-])C(=O)C(C)(C)O4)n2)cc(OC)c1OC.[Na+].[Na+] | 4

Next compound, AUC of dose-response viability curve to be filled in.
Per the records, this compound ( `Cc1c(NC(=O)OC[C@@H]2COCCN2)cn2ncnc(Nc3ccc4c(cnn4Cc4cccc(F)c4)c3)c12.Cl` ) has AUC of dose-response viability curve equal to 4.06

---

AUC of dose-response viability curve values for the compounds below.
- Tested on: 769-P
- METHOD SUMMARY: AUC of dose-response viability curve, drug + dasatinib, normalised to DMSO (arbitrary (AUC of normalised viability)); higher = less growth inhibition
- MEASUREMENT PARAMETERS: treatment: drug + dasatinib (fixed dose, not stated); 5 days
# respond with the number and nothing more

For orientation, consider the following solved cases.
COMPOUND | QUANTITATIVE READOUT
CCN(CC)CCCCNc1ncc2cc(-c3cc(OC)cc(OC)c3)c(NC(=O)NC(C)(C)C)nc2n1 + Cc1nc(Nc2ncc(C(=O)Nc3c(C)cccc3Cl)s2)cc(N2CCN(CCO)CC2)n1 | 2.13
CCO.N#CC(=C(/N)Sc1ccccc1N)/C(C#N)=C(\N)Sc1ccccc1N [U0126-EtOH] + Cc1nc(Nc2ncc(C(=O)Nc3c(C)cccc3Cl)s2)cc(N2CCN(CCO)CC2)n1 | 2.5

AUC of dose-response viability curve for O=C(O)c1ccc(Nc2ncc3c(n2)-c2ccc(Cl)cc2C(c2c(F)cccc2F)=NC3)cc1 [MLN8054] + Cc1nc(Nc2ncc(C(=O)Nc3c(C)cccc3Cl)s2)cc(N2CCN(CCO)CC2)n1 is 2.14
